Sourced from the supplement of paper PMC4862054

- Test system: MDA-MB-468
- ASSAY_PROTOCOL: drug sensitivity score (DSS), CellTiter-Blue viability (DSS (AUC-based score)); higher = stronger viability inhibition; extreme values may be limits of the assay
- MEASUREMENT_CONDITIONS: incubation time: 72 h
Can you tell me drug sensitivity score for the items I'm about to list?
Answers are plain numbers.

For record Cn1c(=O)n(-c2ccc(C(C)(C)C#N)cc2)c2c3cc(-c4cnc5ccccc5c4)ccc3ncc21 [NVP-BEZ235] the listed drug sensitivity score is 13.3

For record O=C1NC(=O)[C@@H](c2cn3c4c(cccc24)CCC3)[C@@H]1c1c[nH]c2ccccc12 [Tivantinib] the listed drug sensitivity score is 1.21

For record CNNCc1ccc(C(=O)NC(C)C)cc1 [Procarbazine] the listed drug sensitivity score is 0

Next:
For record Cc1ccc(NC(=O)c2ccc(CN3CCN(C)CC3)cc2)cc1Nc1nccc(-c2cccnc2)n1 [Imatinib] the listed drug sensitivity score is 0

----------
- System: CAL-85-1
- MEASUREMENT_CONDITIONS: 72 h
Can you tell me EC50, CellTox Green for the items I'm about to list?

Completed entries (count: 2):
For record COc1ccc(-c2ccc3c(N4CCOC[C@@H]4C)nc(N4CCOC[C@@H]4C)nc3n2)cc1CO [AZD8055] the listed EC50, CellTox Green is > 10000 nM

For record C/C(=C\c1csc(C)n1)[C@@H]1C[C@@H]2O[C@]2(C)CCC[C@H](C)[C@H](O)[C@@H](C)C(=O)C(C)(C)[C@@H](O)CC(=O)O1 [Patupilone] the listed EC50, CellTox Green is 53.3 nM

Below are 3 compounds. Give each one its EC50, CellTox Green.
1. CN(C)C[C@@H]1CCn2cc(c3ccccc32)C2=C(C(=O)NC2=O)c2cn(c3ccccc23)CCO1 [Ruboxistaurin]
2. CCCCCCCCc1ccc(CCC(N)(CO)CO)cc1 [Fingolimod]
3. CC[C@]1(O)C[C@H]2CN(CCc3c([nH]c4ccccc34)[C@@](C(=O)OC)(c3cc4c(cc3OC)N(C=O)[C@H]3[C@@](O)(C(=O)OC)[C@H](OC(C)=O)[C@]5(CC)C=CCN6CC[C@]43[C@@H]65)C2)C1 [Vincristine]

1: 2320 nM; 2: 2040 nM; 3: 2.39 nM

----------
- Test system: HCC1599
- ASSAY_PROTOCOL: normalised viability (% of control), CellTiter-Blue; higher = more viable cells (about 100 = DMSO control)
- MEASUREMENT_CONDITIONS: 10 nM; incubation time: 72 h
MEASUREMENT_KIND: normalised viability (%)
Give bare numbers, in %.

Completed entries (count: 3):
For record "CCCCCCCCc1ccc(CCC(N)(CO)CO)cc1" the listed normalised viability is 88.3

For record "CN(C)C[C@@H]1CCn2cc(c3ccccc32)C2=C(C(=O)NC2=O)c2cn(c3ccccc23)CCO1" the listed normalised viability is 109

For record "Cn1cncc1[C@@](N)(c1ccc(Cl)cc1)c1ccc2c(c1)c(-c1cccc(Cl)c1)cc(=O)n2C" the listed normalised viability is 92.7

Next:
For record "CC(C)(C#N)c1cc(Cn2cncn2)cc(C(C)(C)C#N)c1" the listed normalised viability is 98

----------
Can you tell me drug sensitivity score for the items I'm about to list?
- System: MDA-MB-231
- ASSAY_PROTOCOL: drug sensitivity score (DSS), CellTiter-Blue viability (DSS (AUC-based score)); higher = stronger viability inhibition; extreme values may be limits of the assay
- MEASUREMENT_CONDITIONS: incubation time: 72 h
Answers are plain numbers.

Param item: "Cn1cncc1[C@@](N)(c1ccc(Cl)cc1)c1ccc2c(c1)c(-c1cccc(Cl)c1)cc(=O)n2C" ; param system: MDA-MB-231; output drug sensitivity score: 11.7

Param item: "CC(C)(C#N)c1cc(Cn2cncn2)cc(C(C)(C)C#N)c1" ; param system: MDA-MB-231; output drug sensitivity score: 0

Param item: "O=C(O)CCCc1ccc(N(CCCl)CCCl)cc1" ; param system: MDA-MB-231; output drug sensitivity score: 0

Next:
Param item: O=C1NC(=O)[C@@H](c2cn3c4c(cccc24)CCC3)[C@@H]1c1c[nH]c2ccccc12 [Tivantinib] ; param system: MDA-MB-231; output drug sensitivity score: 1.91

----------
- Test system: CAL-148
- ASSAY_PROTOCOL: normalised viability (% of control), CellTiter-Blue; higher = more viable cells (about 100 = DMSO control)
- MEASUREMENT_CONDITIONS: 3 nM; incubation time: 72 h
Can you tell me normalised viability for the items I'm about to list?
Answers are plain numbers, in %.

Completed entries (count: 3):
Param item: "CCCCCCCCc1ccc(CCC(N)(CO)CO)cc1" ; param system: CAL-148; output normalised viability: 85.7

Param item: "O=C(O)CCCc1ccc(N(CCCl)CCCl)cc1" ; param system: CAL-148; output normalised viability: 98

Param item: "COc1ccc(-c2ccc3c(N4CCOC[C@@H]4C)nc(N4CCOC[C@@H]4C)nc3n2)cc1CO" ; param system: CAL-148; output normalised viability: 89.3

Next:
Param item: "CNNCc1ccc(C(=O)NC(C)C)cc1" ; param system: CAL-148; output normalised viability: 103

----------
- Tested on: CAL-51
- ASSAY_PROTOCOL: drug sensitivity score (DSS), CellTox Green (DSS (AUC-based score)); higher = stronger drug effect (viability inhibition or cytotoxicity); extreme values may be limits of the assay
- MEASUREMENT_CONDITIONS: incubation time: 72 h
MEASUREMENT_KIND: drug sensitivity score
Give bare numbers.

Completed entries (count: 3):
Param item: "CCCCCCCCc1ccc(CCC(N)(CO)CO)cc1" ; param system: CAL-51; output drug sensitivity score: 1.3

Param item: "Nc1ncnc2c1c(COc1cccc(Cl)c1)nn2C1CCOCC1" ; param system: CAL-51; output drug sensitivity score: 0

Param item: "Cc1ccc(NC(=O)c2ccc(CN3CCN(C)CC3)cc2)cc1Nc1nccc(-c2cccnc2)n1" ; param system: CAL-51; output drug sensitivity score: 0

Next:
Param item: "C/C(=C\c1csc(C)n1)[C@@H]1C[C@@H]2O[C@]2(C)CCC[C@H](C)[C@H](O)[C@@H](C)C(=O)C(C)(C)[C@@H](O)CC(=O)O1" ; param system: CAL-51; output drug sensitivity score: 21

----------
- Tested on: MDA-MB-231
- MEASUREMENT_CONDITIONS: 72 h
MEASUREMENT_KIND: EC50, CellTiter-Glo (nM)
One number for each entry, in nM.

Completed entries (count: 3):
For record "Cn1c(=O)n(-c2ccc(C(C)(C)C#N)cc2)c2c3cc(-c4cnc5ccccc5c4)ccc3ncc21" the listed EC50, CellTiter-Glo is 11.8

For record CN(C)CCN1C(=O)c2cccc3cc(N)cc(c23)C1=O [Amonafide] the listed EC50, CellTiter-Glo is 2840

For record "CC(C)c1c(C(=O)Nc2ccccc2)c(-c2ccccc2)c(-c2ccc(F)cc2)n1CC[C@@H](O)C[C@@H](O)CC(=O)O" the listed EC50, CellTiter-Glo is 1270

Next:
For record "NS(=O)(=O)OC[C@@H]1C[C@@H](n2ccc3c(N[C@H]4CCc5ccccc54)ncnc32)C[C@@H]1O" the listed EC50, CellTiter-Glo is 953

----------
Can you tell me normalised viability for the items I'm about to list?
- Tested on: BT-474
- ASSAY_PROTOCOL: normalised viability (% of control), CellTiter-Blue; higher = more viable cells (about 100 = DMSO control)
- MEASUREMENT_CONDITIONS: 10 nM; incubation time: 72 h
Numbers only, in %.

Completed entries (count: 4):
For record "CC[C@]1(O)C[C@H]2CN(CCc3c([nH]c4ccccc34)[C@@](C(=O)OC)(c3cc4c(cc3OC)N(C=O)[C@H]3[C@@](O)(C(=O)OC)[C@H](OC(C)=O)[C@]5(CC)C=CCN6CC[C@]43[C@@H]65)C2)C1" the listed normalised viability is 47.9

For record "CN1CCN(CCOc2cc(OC3CCOCC3)c3c(Nc4c(Cl)ccc5c4OCO5)ncnc3c2)CC1" the listed normalised viability is 100

For record "Cn1cncc1[C@@](N)(c1ccc(Cl)cc1)c1ccc2c(c1)c(-c1cccc(Cl)c1)cc(=O)n2C" the listed normalised viability is 109

For record "O=C(O)CCCc1ccc(N(CCCl)CCCl)cc1" the listed normalised viability is 120

Next:
For record "CC(C)(C#N)c1cc(Cn2cncn2)cc(C(C)(C)C#N)c1" the listed normalised viability is 110

----------
Can you tell me drug sensitivity score for the items I'm about to list?
- System: CAL-51
- ASSAY_PROTOCOL: drug sensitivity score (DSS), CellTiter-Blue viability (DSS (AUC-based score)); higher = stronger viability inhibition; extreme values may be limits of the assay
- MEASUREMENT_CONDITIONS: incubation time: 72 h
One number for each entry.

Completed entries (count: 5):
For record O=C(O)CCCc1ccc(N(CCCl)CCCl)cc1 [Chlorambucil] the listed drug sensitivity score is 0

For record CN(C)C[C@@H]1CCn2cc(c3ccccc32)C2=C(C(=O)NC2=O)c2cn(c3ccccc23)CCO1 [Ruboxistaurin] the listed drug sensitivity score is 4.59

For record Cn1c(=O)n(-c2ccc(C(C)(C)C#N)cc2)c2c3cc(-c4cnc5ccccc5c4)ccc3ncc21 [NVP-BEZ235] the listed drug sensitivity score is 20.7

For record CN(C)CCN1C(=O)c2cccc3cc(N)cc(c23)C1=O [Amonafide] the listed drug sensitivity score is 5.33

For record CN1CCN(CCOc2cc(OC3CCOCC3)c3c(Nc4c(Cl)ccc5c4OCO5)ncnc3c2)CC1 [Saracatinib] the listed drug sensitivity score is 8.13

Continuing:
For record CNNCc1ccc(C(=O)NC(C)C)cc1 [Procarbazine] the listed drug sensitivity score is 0
